Values from the RNAGym collection of RNA variant scans (doi:10.1073/pnas.2313332121)

B1: TPR t1 (parent)
chain: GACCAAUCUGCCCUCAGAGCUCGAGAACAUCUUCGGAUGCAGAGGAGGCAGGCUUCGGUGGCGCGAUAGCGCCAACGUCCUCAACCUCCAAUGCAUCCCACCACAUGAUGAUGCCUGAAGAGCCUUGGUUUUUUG

Variants of: B1
Assay: polymerase ribozyme fitness, log enrichment relative to wild type (log ratio); higher = more active; in vitro selection for triplet polymerase activity
measuredQuantity: polymerase ribozyme fitness (log ratio)
Lab note: jot the number down without any unit.

Query block: What measured polymerase ribozyme fitness (log ratio) goes with GACCAAUCUGCCCUCAGAGCUCGAGAACAUCAUCGGAUGCAGAGGAGGCAGGCUUCGGUGGCGCGAUAGCGCAAACGUCCUCAACCUCCAAUGCAUUCCACCACAUGAUGAUGCCUGAAGAGCCUUGGUUUUUUG [U32A C73A C97U] ?
Result block: -6.06

Query block: Param item: GACCAAGCUGCCCUCAGAGCUCGAGAACAUCUUCGGAUGCAGAGGAGGCAGGCUGCGGUGGCGCGAUAGCGCCAACGUCCUUAACCUCCAAUGCAUCCCACCACAUGAUGAUGCCUGAAGAGCCUUGGUUUUUUG [U7G U55G C82U]
Result block: 0.425

Query block: Param item: GACCAAUCUGCCCUCAGAGCUCGAGAACAUCUUCGGAUGCAGAGGACGGAGGCUUCGGUGGCGCGAUAGCGCCAACGUCCUCAACCUCCAAUGCAUCCCACCACAUGAUGAUGCCUGAAGAGCCUUGGUUUUUUG [G47C C49G]
Result block: -2.19

Query block: Param item: GACCAAUCUGCCCUCAGAGCUCGAGAACAUCUUCGGAUGCAGAGGAGGCAGGCUUCGGUGGCGCGAUAGCGCCAACGUCCUCAACCUCCAAUGCAUUCCACCUCAUGAUGAUCCAAGAAGAGCCUUGGUUUUUUG [C97U A103U G113C C115A U116A]
Result block: -6.04

Query block: Param item: GACCAAUCUGCCCUCAGAGCUCGAGAACAUCUUCGUAUGCAGAGGAGGCAGGCUUCGGUGGCGCGAUAGCGCCAACGCCCUCAACCUCCAAUGCAUCCCAUCACAUGAUGAUGCCUGAAGAGACUUGGUUUUUUG [G36U U78C C101U C123A]
Result block: -1.09

Query block: Param item: GACCAAUCUGCCCUCAGAGCUCGAGAACAUCUUCGGAUGCAGUGGAGGCAGGCUUCGGUGGCGCGAUAGCGCCAACGUCCUCAACCUCCAAUGCAUCCCACCACAUGAUAAUGCCUGAAGAGCCUUGGUUUUUUG [A43U G110A]
Result block: -3.03
